- target.entity: FGFR4 (h) (Homo sapiens, UniProt P22455)
- method.notes: FGFR4 (enzymatic assay), TR-FRET
- Type: biochemical
- study.conditions: FGFR 4 pIC50, enzymatic assay
# pIC50 per record follows
Give only the number. pIC50 is defined as minus log10 of concentration in molar units.

Observe how each entry below is paired with its result.
compound	pIC50
COc1cc(/N=c2\ccc3ncc(-c4cnn(CC(C)(C)O)c4)nc3n2CC2CCC(=O)N2)c(F)c(OC)c1 (stereo not shown) [Compound 286]	8.41
COc1cc(/N=c2\ccc3ncc(-c4cnn(C)c4)nc3n2CC2CCCOC2)cc(OC)c1 (stereo not shown) [Compound 165]	8.69
COc1cc(OC)cc(N(Cc2ncc[nH]2)c2ccc3ncc(-c4cn[nH]c4)nc3n2)c1 [Compound 141]	9.22

Let us move to another entry and its pIC50.
Reported pIC50, compound COc1cc(OC)c(F)c(N(CC(C)(C)O)c2ccc3ncc(-c4cnn(CC(C)(C)O)c4)nc3n2)c1 (single isomer, unassigned) [Compound 208] : ____
7.73

* * *

- target.entity: Ba/F3-FGFR4-transfected cells (Homo sapiens)
- Sequence (P22455 whole entry, change not shown): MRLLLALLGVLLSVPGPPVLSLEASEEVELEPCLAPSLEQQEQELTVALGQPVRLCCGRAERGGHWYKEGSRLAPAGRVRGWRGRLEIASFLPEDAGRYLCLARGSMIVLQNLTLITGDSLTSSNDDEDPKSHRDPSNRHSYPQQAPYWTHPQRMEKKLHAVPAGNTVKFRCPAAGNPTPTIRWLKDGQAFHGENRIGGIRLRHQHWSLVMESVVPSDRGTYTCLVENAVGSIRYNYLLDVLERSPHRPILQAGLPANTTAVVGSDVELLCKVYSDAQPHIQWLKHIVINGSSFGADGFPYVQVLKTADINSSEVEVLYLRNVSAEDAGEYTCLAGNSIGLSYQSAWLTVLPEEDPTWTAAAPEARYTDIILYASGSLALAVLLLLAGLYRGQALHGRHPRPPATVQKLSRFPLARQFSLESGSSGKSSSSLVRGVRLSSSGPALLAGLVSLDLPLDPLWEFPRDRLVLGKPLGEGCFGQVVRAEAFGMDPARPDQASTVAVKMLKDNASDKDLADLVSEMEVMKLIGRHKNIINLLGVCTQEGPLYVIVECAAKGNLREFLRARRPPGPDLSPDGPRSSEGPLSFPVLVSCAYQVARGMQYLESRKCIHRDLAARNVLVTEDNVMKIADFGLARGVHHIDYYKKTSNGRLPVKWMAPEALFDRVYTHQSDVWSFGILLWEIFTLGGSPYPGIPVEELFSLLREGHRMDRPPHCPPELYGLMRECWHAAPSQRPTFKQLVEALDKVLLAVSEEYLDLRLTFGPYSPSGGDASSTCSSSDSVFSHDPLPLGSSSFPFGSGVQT
- method.notes: Ba/F3-FGFR4 cellular proliferation assay, Alamar Blue
- Type: cell-based
Answer rule not met if BAF3-FGFR4 pIC50 is under 7, and rule met if it is 7 or more.

compound	discrete.label
COc1cc(OC)cc(N(Cc2ncc[nH]2)c2ccc3ncc(-c4ccccc4)nc3n2)c1 [Compound 152]	rule met

Given the entry COCC(O)Cn1c(=Nc2c(F)c(OC)cc(OC)c2F)ccc2ncc(-c3cnn(C)c3)nc21 (stereo not drawn) [Compound 51] , answer whether its BAF3-FGFR4 pIC50 meets or surpasses 7.
rule met

Determine whether measured BAF3-FGFR4 pIC50 meets or exceeds 7 for COc1cc(OC)c(F)c(N(CCN2CCCC2=O)c2ccc3ncc(-c4cnn(C)c4)nc3n2)c1 [Compound 157]
rule not met

Test whether the compound COc1cc(OC)c(F)c(N(CC2COC(=O)N2)c2ccc3ncc(-c4cnn(C)c4)nc3n2)c1 (single isomer, unassigned) [Compound 111] records BAF3-FGFR4 pIC50 of 7 or higher.
rule met

Please indicate if the recorded BAF3-FGFR4 pIC50 for COc1cc(/N=c2\ccc3ncc(-c4cnn(C)c4)nc3n2CC2CCC(=O)N2C)c(F)c(OC)c1 (stereo not drawn) [Compound 158] meets or exceeds 7.
rule not met

For this compound, is measured BAF3-FGFR4 pIC50 7 or higher? COc1cc(OC)cc(N(Cc2noc(C)n2)c2ccc3ncc(-c4cnn(C)c4)nc3n2)c1 [Compound 186]
rule not met

Is BAF3-FGFR4 pIC50 for CCn1cc(-c2cnc3ccc(N(Cc4ncc[nH]4)c4cc(OC)cc(OC)c4F)nc3n2)cn1 [Compound 223] at or above 7?
rule met

* * *

- target.entity: FGFR2 (h) (Homo sapiens)
- Sequence (P21802 22-821): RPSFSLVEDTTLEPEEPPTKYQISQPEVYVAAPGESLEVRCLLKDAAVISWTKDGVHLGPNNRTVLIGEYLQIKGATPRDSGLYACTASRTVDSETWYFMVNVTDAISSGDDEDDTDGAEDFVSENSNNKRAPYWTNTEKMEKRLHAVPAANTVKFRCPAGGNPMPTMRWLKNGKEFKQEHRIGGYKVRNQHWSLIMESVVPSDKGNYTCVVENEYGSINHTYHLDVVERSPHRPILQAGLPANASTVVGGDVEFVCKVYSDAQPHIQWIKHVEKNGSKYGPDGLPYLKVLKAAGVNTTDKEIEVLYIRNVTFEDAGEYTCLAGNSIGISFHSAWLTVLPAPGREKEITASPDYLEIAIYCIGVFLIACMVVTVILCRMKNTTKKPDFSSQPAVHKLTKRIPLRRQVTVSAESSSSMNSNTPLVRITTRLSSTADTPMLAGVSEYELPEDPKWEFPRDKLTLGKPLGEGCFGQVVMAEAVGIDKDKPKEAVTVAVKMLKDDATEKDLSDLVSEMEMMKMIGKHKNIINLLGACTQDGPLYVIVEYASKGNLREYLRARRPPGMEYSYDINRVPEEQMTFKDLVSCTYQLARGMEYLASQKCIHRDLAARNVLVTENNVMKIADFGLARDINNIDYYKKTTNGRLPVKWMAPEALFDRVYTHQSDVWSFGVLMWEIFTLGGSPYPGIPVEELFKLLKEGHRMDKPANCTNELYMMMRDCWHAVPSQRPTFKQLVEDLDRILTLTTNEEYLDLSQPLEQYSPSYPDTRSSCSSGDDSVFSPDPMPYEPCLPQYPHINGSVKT
- method.notes: FGFR2 (enzymatic assay), TR-FRET
- Assay type: biochemical
- study.conditions: enzymatic assay; read-out: FGFR 2 pIC50 (converted)
Recorded IC50 for the following compounds
The response must be a number in nM with no trailing unit.

compound	IC50 [nM]
COc1cc(/N=c2\ccc3ncc(-c4cnn(C)c4)nc3n2CCN2CCCC2=O)c(F)c(OC)c1	2.69

Field: IC50 (FGFR2 (h) (Homo sapiens)). Entry: `COc1cc(OC)c(F)c(N(Cc2cc(C)on2)c2ccc3ncc(-c4cnn(C)c4)nc3n2)c1`
1.62

# get_value(readout= IC50, system= FGFR2 (h) (Homo sapiens)) for `COc1cc(/N=c2\ccc3ncc(-c4cnn(C)c4)nc3n2Cc2cnn(C)c2)c(F)c(OC)c1`
2.14

Observed IC50 on FGFR2 (h) (Homo sapiens) for `COc1cc(OC)cc(N(Cc2ncn(CCO)n2)c2ccc3ncc(-c4cnn(C)c4)nc3n2)c1` , please.
5.13

Notebook: pull reported IC50 for FGFR2 (h) (Homo sapiens), entry COc1cc(OC)c(F)c(N(CC(O)c2cnn(C)c2)c2ccc3ncc(-c4cnn(C)c4)nc3n2)c1 (stereo not shown)
5.01

Given the entry COc1cc(OC)c(F)c(N(CC(O)COC(C)C)c2ccc3ncc(-c4cnn(CC(O)COC(C)C)c4)nc3n2)c1 (single isomer, unassigned) , what IC50 was observed with FGFR2 (h) (Homo sapiens)?
5.37

Notebook: pull reported IC50 for FGFR2 (h) (Homo sapiens), entry `COc1cc(OC)c(F)c(N(Cc2c(C)noc2C)c2ccc3ncc(-c4cnn(C)c4)nc3n2)c1`
7.41

* * *

Listing of recorded IC50 by entry.
- target.entity: KDR (h) (Homo sapiens, UniProt P35968)
- Sequence (P35968 20-1356): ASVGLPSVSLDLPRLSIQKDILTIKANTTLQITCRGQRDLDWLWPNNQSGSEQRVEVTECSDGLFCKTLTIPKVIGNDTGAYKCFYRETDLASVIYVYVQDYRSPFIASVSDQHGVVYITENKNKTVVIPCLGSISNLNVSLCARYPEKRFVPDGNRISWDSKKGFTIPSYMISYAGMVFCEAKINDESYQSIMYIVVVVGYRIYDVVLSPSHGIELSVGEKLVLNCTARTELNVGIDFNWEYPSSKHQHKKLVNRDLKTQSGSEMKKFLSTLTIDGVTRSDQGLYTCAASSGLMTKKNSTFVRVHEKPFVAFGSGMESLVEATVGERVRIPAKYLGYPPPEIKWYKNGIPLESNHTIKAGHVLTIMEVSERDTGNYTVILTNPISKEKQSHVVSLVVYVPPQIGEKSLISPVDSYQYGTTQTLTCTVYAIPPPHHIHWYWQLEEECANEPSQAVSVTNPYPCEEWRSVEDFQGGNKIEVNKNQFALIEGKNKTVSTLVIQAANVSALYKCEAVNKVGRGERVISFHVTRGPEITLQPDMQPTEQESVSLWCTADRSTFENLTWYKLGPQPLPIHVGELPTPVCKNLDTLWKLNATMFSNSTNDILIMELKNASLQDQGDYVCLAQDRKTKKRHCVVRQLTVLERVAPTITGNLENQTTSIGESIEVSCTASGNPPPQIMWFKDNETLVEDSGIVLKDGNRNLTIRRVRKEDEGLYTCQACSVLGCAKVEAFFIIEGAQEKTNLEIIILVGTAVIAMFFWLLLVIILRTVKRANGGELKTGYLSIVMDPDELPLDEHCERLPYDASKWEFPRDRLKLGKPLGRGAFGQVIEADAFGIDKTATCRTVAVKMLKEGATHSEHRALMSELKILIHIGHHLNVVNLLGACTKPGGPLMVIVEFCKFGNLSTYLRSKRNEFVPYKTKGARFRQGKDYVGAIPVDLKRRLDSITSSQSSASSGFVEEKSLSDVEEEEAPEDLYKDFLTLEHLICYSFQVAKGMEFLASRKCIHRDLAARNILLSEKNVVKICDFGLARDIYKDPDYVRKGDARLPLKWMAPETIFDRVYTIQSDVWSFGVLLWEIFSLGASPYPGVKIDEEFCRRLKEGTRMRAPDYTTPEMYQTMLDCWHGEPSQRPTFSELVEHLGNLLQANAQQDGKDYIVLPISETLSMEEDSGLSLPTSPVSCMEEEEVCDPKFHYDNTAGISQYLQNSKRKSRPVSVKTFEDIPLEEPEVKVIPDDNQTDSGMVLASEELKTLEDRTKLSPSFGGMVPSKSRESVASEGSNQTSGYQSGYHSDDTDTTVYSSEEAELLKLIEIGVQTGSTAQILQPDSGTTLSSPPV
- method.notes: KDR (VEGFR2) (enzymatic assay), TR-FRET
- Assay type: biochemical
- study.conditions: read-out: VEGFR 2 (KDR) pIC50 (converted)
Express your answer in nM, writing the number without its unit.

Below are worked cases with known answers.
compound	target.entity	result.units	IC50
COc1cc(/N=c2\ccc3ncc(-c4cnn(C)c4)nc3n2Cc2cc(C)on2)c(F)c(OC)c1 [Compound 181]	KDR (h) (Homo sapiens, UniProt P35968)	nM	6.76
CNC(=O)c1cc(F)cc(N(Cc2ncc[nH]2)c2ccc3ncc(-c4cnn(C)c4)nc3n2)c1 [Compound 261]	KDR (h) (Homo sapiens, UniProt P35968)	nM	10.2
COCC(O)Cn1/c(=N/c2cc(OC)cc(OC)c2F)ccc2ncc(-c3cnn(C)c3)nc21 (single isomer, unassigned) [Compound 60]	KDR (h) (Homo sapiens, UniProt P35968)	nM	8.91
COc1cc(OC)c(F)c(N(CC2CC2)c2ccc3ncc(-c4cnn(C)c4)nc3n2)c1F (single isomer, unassigned) [Compound 268]	KDR (h) (Homo sapiens, UniProt P35968)	nM	12
COc1cc(OC)c(F)c(N(CCO)c2ccc3ncc(-c4cnn(CCO)c4)nc3n2)c1 [Compound 233]	KDR (h) (Homo sapiens, UniProt P35968)	nM	25.7

Which IC50 value belongs to COc1cc(OC)c(F)c(N(CC2CCC(=O)N2)c2ccc3ncc(-c4cnn(CC(C)(C)O)c4)nc3n2)c1 (stereo not shown) [Compound 285] ?
35.5

May I ask what IC50 has been recorded for COc1cc(OC)c(F)c(N(Cc2c[nH]c(C)n2)c2ccc3ncc(-c4cnn(C)c4)nc3n2)c1 [Compound 137] ?
11.2

* * *

# Lookup of reported IC50 keyed by entry
- target.entity: FGFR4 (h) (Homo sapiens)
- method.notes: FGFR4 (enzymatic assay), TR-FRET
- Assay type: biochemical
- study.conditions: FGFR 4 pIC50, enzymatic assay; average values if tested multiple times
Give the value, in units of nM, as a plain number.

compound	IC50 [nM]
COCC(O)CN(c1ccc2ncc(-c3cnn(C)c3)nc2n1)c1cc(OC)cc(OC)c1F (single isomer, unassigned) [Compound 59]	2.19
COCC(O)Cn1c(=Nc2c(F)c(OC)cc(OC)c2F)ccc2ncc(-c3cnn(C)c3)nc21 (stereo not shown) [Compound 51]	0.525
COc1cc(OC)c(F)c(N(Cc2ccnn2C)c2ccc3ncc(-c4cnn(C)c4)nc3n2)c1 [Compound 113]	3.31
COc1cc(/N=c2\ccc3ncc(-c4cnn(C)c4)nc3n2Cc2cc[nH]n2)c(F)c(OC)c1 [Compound 115]	0.933
CNCCn1/c(=N/c2c(Cl)c(OC)cc(OC)c2Cl)ccc2ncc(-c3cnn(C)c3)nc21 [Compound 82]	182
COc1cc(OC)c(F)c(/N=c2\ccc3ncc(-c4cnn(C)c4)nc3n2CCCO)c1F (single isomer, unassigned) [Compound 17]	0.501

Please find the next compound below.
Return reported IC50; argument: COc1cc(OC)c(F)c(N(CC2CCC(=O)N2)c2ccc3ncc(-c4cnn(C)c4)nc3n2)c1 (stereo not shown) [Compound 46]
3.89

* * *

- target.entity: Ba/F3-FGFR3-transfected cells (Homo sapiens, UniProt P22607)
- Construct: BAF3-FGFR3 (MIN IL3) pIC50; other: minus IL3
- Sequence (P22607 whole entry, change not shown): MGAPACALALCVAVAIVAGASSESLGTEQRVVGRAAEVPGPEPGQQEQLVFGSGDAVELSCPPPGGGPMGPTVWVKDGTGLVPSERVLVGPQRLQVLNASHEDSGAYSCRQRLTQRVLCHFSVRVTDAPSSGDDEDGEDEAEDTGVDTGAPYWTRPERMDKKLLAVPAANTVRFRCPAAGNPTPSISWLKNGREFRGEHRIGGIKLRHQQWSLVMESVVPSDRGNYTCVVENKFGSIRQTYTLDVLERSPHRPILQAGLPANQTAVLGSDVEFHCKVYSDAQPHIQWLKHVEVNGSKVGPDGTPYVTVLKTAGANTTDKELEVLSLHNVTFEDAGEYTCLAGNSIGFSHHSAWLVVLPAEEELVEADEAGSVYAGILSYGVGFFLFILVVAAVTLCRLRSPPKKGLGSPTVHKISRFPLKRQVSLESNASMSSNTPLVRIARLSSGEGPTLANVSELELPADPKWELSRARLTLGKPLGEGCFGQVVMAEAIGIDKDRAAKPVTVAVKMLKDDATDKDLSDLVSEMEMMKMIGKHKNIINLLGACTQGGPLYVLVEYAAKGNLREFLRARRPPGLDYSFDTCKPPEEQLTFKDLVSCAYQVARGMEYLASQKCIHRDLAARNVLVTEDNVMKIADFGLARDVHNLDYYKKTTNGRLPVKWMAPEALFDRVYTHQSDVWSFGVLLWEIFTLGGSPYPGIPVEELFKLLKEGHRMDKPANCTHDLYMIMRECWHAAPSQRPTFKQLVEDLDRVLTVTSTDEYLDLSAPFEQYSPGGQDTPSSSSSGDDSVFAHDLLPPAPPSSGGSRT
- method.notes: Ba/F3-FGFR3 (minus IL3) cellular proliferation assay, Alamar Blue
- Format: cell-based
Where a name gives a salt, the structure may show the parent alone.
reported.property: BAF3-FGFR3 (MIN IL3) pIC50
Answer with a number only.

Form field - read-out: BAF3-FGFR3 (MIN IL3) pIC50; system: Ba/F3-FGFR3-transfected cells (Homo sapiens, UniProt P22607); submitted item: COc1cc(OC)c(F)c(N(CC(O)COC(C)C)c2ccc3ncc(-c4cnn(C)c4)nc3n2)c1 (single isomer, unassigned) [Compound 79]
7.63

Item `COc1cc(OC)c(F)c(N(Cc2nc(C)c[nH]2)c2ccc3ncc(-c4cnn(C)c4)nc3n2)c1` with Ba/F3-FGFR3-transfected cells (Homo sapiens, UniProt P22607) - BAF3-FGFR3 (MIN IL3) pIC50?
8.25

Under Ba/F3-FGFR3-transfected cells (Homo sapiens, UniProt P22607): BAF3-FGFR3 (MIN IL3) pIC50 value of COc1cc(OC)c(F)c(N(C)c2ccc3ncc(-c4cnn(C)c4)nc3n2)c1F (single isomer, unassigned) ?
8.08

So what BAF3-FGFR3 (MIN IL3) pIC50 did COc1cc(OC)cc(N(Cc2ncc[nH]2)c2ccc3ncc(-c4cnn(C)c4)nc3n2)c1 (racemic) [24-DL-tartrate salt] get with Ba/F3-FGFR3-transfected cells (Homo sapiens, UniProt P22607)?
8.21

Lab request: please report BAF3-FGFR3 (MIN IL3) pIC50 under test system Ba/F3-FGFR3-transfected cells (Homo sapiens, UniProt P22607) for `COc1cc(OC)cc(N(CCCO)c2ccc3ncc(-c4cnn(C)c4)nc3n2)c1`
7.3

From: patent US9309242B2
